Test system: GST-Shp2 PTP domain protein
Assay type: biochemical
Description: All reactions were monitored by thin layer chromatography (TLC) or ^1H NMR. Some products, which could not be purified by simply washing, were purified by Flashmaster chromatography. […] After the purity and structure were confirmed, samples were tested for IC50 by DiFMUP assay, seen in Table 1, appended. Curve fitting and IC50 were obtained using the GraphPad Prism program (GraphPad Software).
endpoint: IC50 (µM)
Numbers only, in µM.

O=C1Nc2ccc(S(=O)(=O)NCc3ccc(F)cc3)cc2/C1=N/Nc1cccc(C(=O)O)c1 [SPI-112] ... 2.6

Look up IC50 for the entries below, preserving their order.
1. COc1cccc(C(=O)N2CCc3cc(S(=O)(=O)N4CCN(c5cccc(Cl)c5)CC4)ccc32)c1 [JHE-02-035A]
2. O=C(O)/C=C/C(=O)N1CCc2cc(S(=O)(=O)N3CCN(c4cccc(Cl)c4)CC3)ccc21 [JHE-01-129A]
3. O=C(Nc1cccc(Cl)c1)N1CCc2cc(S(=O)(=O)N3CCN(c4cccc(Cl)c4)CC3)ccc21 [JHE-02-032A]
4. O=C(c1ccc(Cl)c(Cl)c1)N1CCc2cc(S(=O)(=O)N3CCN(c4cccc(Cl)c4)CC3)ccc21 [JF023]
5. O=C(O)CCC(=O)N1CCc2cc(S(=O)(=O)N3CCN(c4ccc(F)cc4)CC3)ccc21 [XW2-011B]
6. COc1cccc(NC(=O)N2CCc3cc(S(=O)(=O)N4CCN(c5cccc(Cl)c5)CC4)ccc32)c1 [JHE-02-032B]

Result string:
7.8
2.8
8.3
7.1
47.8
4.8
